# assay-procedure: Stability of flavonoids and biotransformation products in mouse plasma under different handling conditions
# Assay type: in vitro ADME, mice
# measurement-context: room temperature (25 °C), 24 h; low nominal conc. (1.75; 11.02; 1.12; 1.95 µg/mL); n = 6
observable: Observed Conc. 24 h (µg/mL)

Example entries begin here.
molecule | Observed Conc. 24 h / µg/mL
C[C@@H]1O[C@@H](OC[C@H]2O[C@@H](Oc3c(-c4ccc(O)c(O)c4)oc4cc(O)cc(O)c4c3=O)[C@H](O)[C@@H](O)[C@@H]2O)[C@H](O)[C@H](O)[C@H]1O | 1.64
O=C(O)Cc1ccc(O)cc1 [p-HPAA, para-hydroxyphenylacetic acid] | 1.93
O=C(/C=C/c1ccc(O)cc1)OC[C@H]1O[C@@H](Oc2c(-c3ccc(O)cc3)oc3cc(O)cc(O)c3c2=O)[C@H](O)[C@@H](O)[C@@H]1O [Tiliroside, tiliroside] | 10.53
O=C(O)Cc1ccc(O)c(O)c1 [DOPAC, 3,4-dihydroxyphenylacetic acid] | 1.91
O=c1c(O[C@@H]2O[C@H](CO)[C@@H](O)[C@H](O)[C@H]2O)c(-c2ccc(O)c(O)c2)oc2cc(O)cc(O)c12 [Quercetin glucoside, quercetin glucoside] | 11.35

a = O=C(O)Cc1cccc(O)c1 [m-HPAA, meta-hydroxyphenylacetic acid]
b = O=c1c(O)c(-c2ccc(O)cc2)oc2cc(O)cc(O)c12
Ask: Please choose the item with the lower Observed Conc. 24 h value from this pair: a and b Reply with the label of the item you choose.
Reply: b

====

# assay-procedure: Stability of flavonoids and biotransformation products in mouse plasma under different handling conditions
# Format: in vitro ADME, mice
# measurement-context: room temperature (25 °C), 0 h; low nominal conc.
Items are presented alongside their recorded Accuracy Bias 0 h.
Express the result in % but write the number alone.

The following molecules have reported results that may help.
molecule | Accuracy Bias 0 h / %
C[C@@H]1O[C@@H](OC[C@H]2O[C@@H](Oc3c(-c4ccc(O)c(O)c4)oc4cc(O)cc(O)c4c3=O)[C@H](O)[C@@H](O)[C@@H]2O)[C@H](O)[C@H](O)[C@H]1O | 5.76
C[C@@H]1O[C@@H](Oc2c(-c3ccc(O)c(O)c3)oc3cc(O)cc(O)c3c2=O)[C@H](O)[C@H](O)[C@H]1O | −2.26

Ask: Give Accuracy Bias 0 h for O=C(O)Cc1ccc(O)cc1 [p-HPAA, para-hydroxyphenylacetic acid]
Reply: 1.44

====

# assay-procedure: Stability of flavonoids and biotransformation products in mouse plasma under different handling conditions
# Assay type: in vitro ADME, mice
# measurement-context: room temperature (25 °C), 24 h; low nominal conc.
observable: Accuracy Bias 24 h (%)

Below: 3 compounds and their reported Accuracy Bias 24 h.
compound | Accuracy Bias 24 h, %
C[C@@H]1O[C@@H](Oc2c(-c3ccc(O)c(O)c3)oc3cc(O)cc(O)c3c2=O)[C@H](O)[C@H](O)[C@H]1O | 0.30
O=c1c(O)c(-c2ccc(O)cc2)oc2cc(O)cc(O)c12 | −2.28
O=c1c(O[C@@H]2O[C@H](CO)[C@@H](O)[C@H](O)[C@H]2O)c(-c2ccc(O)c(O)c2)oc2cc(O)cc(O)c12 [Quercetin glucoside, quercetin glucoside] | −2.98

A = O=C(/C=C/c1ccc(O)cc1)OC[C@H]1O[C@@H](Oc2c(-c3ccc(O)cc3)oc3cc(O)cc(O)c3c2=O)[C@H](O)[C@@H](O)[C@@H]1O [Tiliroside, tiliroside]
B = O=C(O)Cc1ccc(O)cc1 [p-HPAA, para-hydroxyphenylacetic acid]
C = O=C(O)Cc1ccc(O)c(O)c1 [DOPAC, 3,4-dihydroxyphenylacetic acid]
Ask: Form: Sort by [Accuracy Bias 24 h] Order [ ascending ] // rank by listing labels in the order requested
Reply: C, B, A
